measurement-target: Phenylalanine--tRNA ligase alpha/beta subunit (Staphylococcus aureus, UniProt P68849+Q9AGR3)
Sequence (P68849 whole entry): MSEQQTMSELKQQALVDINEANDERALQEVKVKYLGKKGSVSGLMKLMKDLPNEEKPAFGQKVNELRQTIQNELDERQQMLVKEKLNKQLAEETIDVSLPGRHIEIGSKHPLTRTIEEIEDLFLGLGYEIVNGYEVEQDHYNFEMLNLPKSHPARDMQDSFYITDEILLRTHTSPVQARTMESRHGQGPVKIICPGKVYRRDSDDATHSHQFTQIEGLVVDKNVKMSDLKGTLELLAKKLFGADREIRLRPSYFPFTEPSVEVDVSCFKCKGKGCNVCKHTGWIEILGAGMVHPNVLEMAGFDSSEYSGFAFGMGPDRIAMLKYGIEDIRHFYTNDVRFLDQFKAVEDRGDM
Sequence (Q9AGR3 whole entry): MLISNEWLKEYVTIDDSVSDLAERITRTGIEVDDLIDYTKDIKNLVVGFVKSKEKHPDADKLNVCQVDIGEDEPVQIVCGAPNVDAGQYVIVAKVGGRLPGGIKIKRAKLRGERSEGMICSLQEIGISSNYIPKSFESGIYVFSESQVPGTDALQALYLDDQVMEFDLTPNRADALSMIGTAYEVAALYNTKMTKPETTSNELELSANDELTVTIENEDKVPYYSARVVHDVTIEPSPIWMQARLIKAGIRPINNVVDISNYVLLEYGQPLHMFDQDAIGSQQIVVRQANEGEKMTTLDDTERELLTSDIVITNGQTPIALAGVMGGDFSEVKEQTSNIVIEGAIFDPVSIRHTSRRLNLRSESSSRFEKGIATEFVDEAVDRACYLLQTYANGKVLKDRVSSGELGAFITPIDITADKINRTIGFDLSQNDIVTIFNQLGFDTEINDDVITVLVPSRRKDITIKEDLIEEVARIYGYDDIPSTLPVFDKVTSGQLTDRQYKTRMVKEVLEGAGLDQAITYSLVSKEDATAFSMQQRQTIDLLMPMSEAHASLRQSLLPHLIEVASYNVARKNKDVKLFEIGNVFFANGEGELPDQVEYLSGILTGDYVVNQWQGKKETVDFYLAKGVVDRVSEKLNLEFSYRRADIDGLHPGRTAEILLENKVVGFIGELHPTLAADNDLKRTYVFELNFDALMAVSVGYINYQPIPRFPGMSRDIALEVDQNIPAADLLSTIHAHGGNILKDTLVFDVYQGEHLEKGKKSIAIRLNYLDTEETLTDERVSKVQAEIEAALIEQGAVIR
assay-protocol: Homogeneous Enzyme Assay with SPA Beads
stated-conditions: pH 7.9; 37 °C
experimental-readout: IC50

// query Could you please provide reported IC50 for OC(CNCc1ccccc1N1CCOCC1)c1cccc(C(F)(F)F)c1 (stereo unspecified) ? Thanks!
// result > 10 µM
